tested on: B16F10-Cas9 cells pulsed with SIINFEKL peptide, co-cultured with OT-I T cells; assay: Genome-scale CRISPR-Cas9 screen, selection with OT-I T cells; assay type: cell-based, mouse; details: Table 3; B16F10-Cas9 cells pulsed with SIINFEKL, co-cultured with OT-I T cells 1:1 for one day; negative = depleted, positive = enriched
Label scheme for OT1 (sgRNA Log(2) fold change, OT-I selection versus control T cells): lower than -2 is class 0, -2 and above is class 1.

residues="CCGCTCGAAGAAGCACTCCT (chemistry not fully specified)" assayed_target="B16F10-Cas9 cells pulsed with SIINFEKL peptide, co-cultured with OT-I T cells" class="class 0"
residues="GGACAAGACATGGAGACAGA (chemistry not fully specified)" assayed_target="B16F10-Cas9 cells pulsed with SIINFEKL peptide, co-cultured with OT-I T cells" class="class 0"
residues="CTTGGTCAAATACACTACAG (chemistry not fully specified)" assayed_target="B16F10-Cas9 cells pulsed with SIINFEKL peptide, co-cultured with OT-I T cells" class="class 1"
residues="TCTGTTGAAAGAGCGCCAAA (chemistry not fully specified)" assayed_target="B16F10-Cas9 cells pulsed with SIINFEKL peptide, co-cultured with OT-I T cells" class="class 1"
residues="CAGGACTTCTGGTCTATCCG (chemistry not fully specified)" assayed_target="B16F10-Cas9 cells pulsed with SIINFEKL peptide, co-cultured with OT-I T cells" class="class 0"
residues="ACAGATACGGAGTGTCCCGT (chemistry not fully specified)" assayed_target="B16F10-Cas9 cells pulsed with SIINFEKL peptide, co-cultured with OT-I T cells" class="class 1"
residues="GAAAAATCTGTACACCACCG (chemistry not fully specified)" assayed_target="B16F10-Cas9 cells pulsed with SIINFEKL peptide, co-cultured with OT-I T cells" class="class 0"
residues="AAAAATTCAACGTTGAAACA (chemistry not fully specified)" assayed_target="B16F10-Cas9 cells pulsed with SIINFEKL peptide, co-cultured with OT-I T cells" class="class 1"
residues="TCTTGAAAACTATAGTACTC (chemistry not fully specified)" assayed_target="B16F10-Cas9 cells pulsed with SIINFEKL peptide, co-cultured with OT-I T cells" class="class 0"
residues="GGACACCAAGTTATTCCGTG (chemistry not fully specified)" assayed_target="B16F10-Cas9 cells pulsed with SIINFEKL peptide, co-cultured with OT-I T cells" class="class 0"
residues="TGAGTATACTTGAATTTGAG (chemistry not fully specified)" assayed_target="B16F10-Cas9 cells pulsed with SIINFEKL peptide, co-cultured with OT-I T cells" class="class 1"
residues="ACTCACTCTGGATAGCATAC (chemistry not fully specified)" assayed_target="B16F10-Cas9 cells pulsed with SIINFEKL peptide, co-cultured with OT-I T cells" class="class 1"
residues="CAAAGTCTGCTGTCCGACCT (chemistry not fully specified)" assayed_target="B16F10-Cas9 cells pulsed with SIINFEKL peptide, co-cultured with OT-I T cells" class="class 1"
residues="GGTTCCTTGCGGGACTCCGT (chemistry not fully specified)" assayed_target="B16F10-Cas9 cells pulsed with SIINFEKL peptide, co-cultured with OT-I T cells" class="class 0"
residues="TAGCCGACAGAGATGTACCG (chemistry not fully specified)" assayed_target="B16F10-Cas9 cells pulsed with SIINFEKL peptide, co-cultured with OT-I T cells" class="class 1"
residues="GTGAGCCTGAGGAACCTGCT (chemistry not fully specified)" assayed_target="B16F10-Cas9 cells pulsed with SIINFEKL peptide, co-cultured with OT-I T cells" class="class 1"
